The origin of these recorded values is ChEMBL document CHEMBL5223180.

System: UniProt:P00533
Sequence (P00533 whole entry): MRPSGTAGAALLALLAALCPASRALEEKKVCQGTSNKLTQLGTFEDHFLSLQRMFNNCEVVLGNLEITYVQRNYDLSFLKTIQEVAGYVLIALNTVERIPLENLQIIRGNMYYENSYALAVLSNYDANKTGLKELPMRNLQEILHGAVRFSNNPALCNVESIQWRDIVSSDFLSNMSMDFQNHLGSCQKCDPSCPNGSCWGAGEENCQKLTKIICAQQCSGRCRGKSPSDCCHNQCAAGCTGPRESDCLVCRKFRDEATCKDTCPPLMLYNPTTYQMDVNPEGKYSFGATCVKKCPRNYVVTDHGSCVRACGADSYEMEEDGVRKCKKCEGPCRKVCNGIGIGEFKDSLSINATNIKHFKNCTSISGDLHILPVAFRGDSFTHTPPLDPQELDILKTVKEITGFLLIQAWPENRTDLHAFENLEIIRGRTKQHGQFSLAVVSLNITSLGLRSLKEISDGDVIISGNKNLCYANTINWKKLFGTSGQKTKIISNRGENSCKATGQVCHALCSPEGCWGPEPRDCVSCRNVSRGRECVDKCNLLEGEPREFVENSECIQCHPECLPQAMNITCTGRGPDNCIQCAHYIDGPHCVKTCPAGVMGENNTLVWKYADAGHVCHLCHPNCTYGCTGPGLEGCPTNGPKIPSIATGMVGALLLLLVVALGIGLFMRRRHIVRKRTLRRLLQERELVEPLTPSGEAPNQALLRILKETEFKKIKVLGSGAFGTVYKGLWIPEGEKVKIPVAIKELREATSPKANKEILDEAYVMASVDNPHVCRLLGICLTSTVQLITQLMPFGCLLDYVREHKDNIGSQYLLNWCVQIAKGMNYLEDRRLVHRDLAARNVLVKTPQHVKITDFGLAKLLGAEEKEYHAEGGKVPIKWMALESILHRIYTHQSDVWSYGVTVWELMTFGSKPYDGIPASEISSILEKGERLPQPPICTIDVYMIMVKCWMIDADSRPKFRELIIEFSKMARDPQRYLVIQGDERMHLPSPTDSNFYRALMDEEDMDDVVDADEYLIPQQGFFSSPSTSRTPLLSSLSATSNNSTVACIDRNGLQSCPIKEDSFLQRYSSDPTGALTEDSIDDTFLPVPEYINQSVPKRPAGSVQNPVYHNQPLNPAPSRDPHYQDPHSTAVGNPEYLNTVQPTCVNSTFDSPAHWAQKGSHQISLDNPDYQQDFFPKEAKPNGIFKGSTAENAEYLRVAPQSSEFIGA
pIC50: −log10 of the molar value.
Measured Property: pIC50

Query :: Respond only with pIC50 recorded for CC(=O)N1CCC(c2cc3c(N[C@H](C)c4cc(N)cc(C(F)(F)F)c4)nc(C)nc3n(C)c2=O)CC1
Result :: < 5.00

====

System: Receptor tyrosine-protein kinase erbB-2 (Homo sapiens)
Sequence (P04626 whole entry): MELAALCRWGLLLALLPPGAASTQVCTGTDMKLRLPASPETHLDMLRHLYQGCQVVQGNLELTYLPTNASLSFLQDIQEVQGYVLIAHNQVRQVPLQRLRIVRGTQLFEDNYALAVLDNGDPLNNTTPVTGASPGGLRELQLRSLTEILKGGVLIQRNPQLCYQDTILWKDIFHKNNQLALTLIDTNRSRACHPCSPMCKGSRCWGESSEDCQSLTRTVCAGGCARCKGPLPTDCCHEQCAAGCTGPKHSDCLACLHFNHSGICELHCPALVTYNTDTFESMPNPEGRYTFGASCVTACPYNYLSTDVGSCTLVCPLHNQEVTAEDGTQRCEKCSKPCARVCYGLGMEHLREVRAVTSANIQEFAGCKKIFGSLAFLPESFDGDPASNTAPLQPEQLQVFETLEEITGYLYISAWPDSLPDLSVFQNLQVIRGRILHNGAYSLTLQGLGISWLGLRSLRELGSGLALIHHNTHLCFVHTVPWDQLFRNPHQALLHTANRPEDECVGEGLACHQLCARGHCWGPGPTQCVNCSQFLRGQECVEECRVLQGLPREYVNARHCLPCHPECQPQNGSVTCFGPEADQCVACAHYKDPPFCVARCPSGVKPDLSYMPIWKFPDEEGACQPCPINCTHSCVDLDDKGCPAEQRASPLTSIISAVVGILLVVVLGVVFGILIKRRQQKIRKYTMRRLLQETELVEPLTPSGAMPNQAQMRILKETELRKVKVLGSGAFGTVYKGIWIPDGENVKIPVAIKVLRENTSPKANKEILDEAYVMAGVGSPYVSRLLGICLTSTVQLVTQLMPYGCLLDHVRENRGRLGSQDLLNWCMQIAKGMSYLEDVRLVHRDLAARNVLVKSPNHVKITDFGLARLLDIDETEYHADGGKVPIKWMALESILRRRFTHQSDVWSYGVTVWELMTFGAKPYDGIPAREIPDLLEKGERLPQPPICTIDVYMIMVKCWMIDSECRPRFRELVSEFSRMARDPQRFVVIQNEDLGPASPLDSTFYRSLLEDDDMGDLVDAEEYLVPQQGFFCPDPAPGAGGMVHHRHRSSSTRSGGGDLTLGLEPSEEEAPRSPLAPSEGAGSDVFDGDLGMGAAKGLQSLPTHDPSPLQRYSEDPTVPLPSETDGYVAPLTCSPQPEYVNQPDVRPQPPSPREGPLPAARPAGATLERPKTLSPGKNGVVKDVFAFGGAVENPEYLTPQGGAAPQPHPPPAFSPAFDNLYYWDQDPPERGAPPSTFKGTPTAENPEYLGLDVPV
pIC50: −log10 of the molar value.
Measured Property: pIC50

Query :: Respond only with pIC50 recorded for CC(=O)N1CCC(c2cc3c(N[C@H](C)c4cc(N)cc(C(F)(F)F)c4)nc(C)nc3n(C)c2=O)CC1
Result :: < 5.00

====

System: Cyclin-dependent kinase 2 (Homo sapiens)
Measured Property: IC50

Query :: Respond only with IC50 recorded for CC(=O)N1CCC(c2cc3c(N[C@H](C)c4cc(N)cc(C(F)(F)F)c4)nc(C)nc3n(C)c2=O)CC1
Result :: > 10 µM
